- experimental target: Rap guanine nucleotide exchange factor 3 (Homo sapiens)
- assay details: Confirmatory qHTS for agonist of cAMP-regulated guanine nucleotide exchange factor 3 (EPAC1) (AID 1645881); note: nearly all actives have a fitted effect of over 75% in size;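 for activation: EPAC1 catalysed release of BODIPY-GDP from Rap1B seen as fluorescence loss; 100% = effect of cAMP agonist control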
- condition description: EPAC1 Rap1B BODIPY-GDP exchange fluorescence; series mostly up to 154 µM
Results filed as inconclusive are left out. Active and inactive are the calls of the source. Calls come from the whole dose curve; as a rule, active = well fitted activation curve with a large enough effect; inconclusive = small, poorly fitted or top-dose-only effect; inactive = no such curve, though single readings can be large or run the other way.
API: response.call in class 1 for active, class 0 for inactive

Record excerpt, results attached:
Cn1cccc1/C=C1\CCC/C(=C\c2cccn2C)C1=O	class 0
COc1cccc(CN(C)CC(=O)Nc2c(C)cccc2C(C)C)c1	class 0
COc1ccc2ccccc2c1C(O)c1nccn1C (stereo unspecified)	class 0
CC(C)CCNC(=O)c1cnn2c(C(F)(F)F)cc(-c3ccco3)nc12	class 0
COc1ccccc1CCC(=O)Nc1cc(S(=O)(=O)N2CCCCC2)ccc1N1CCN(C)CC1	class 0
COc1ccc(Cl)cc1NC(=O)CN(C)C(=O)c1cc(-c2ccncc2)nc2ccccc12	class 0
CC(/C=C1\SC(=S)N(CCC(=O)Nc2cccc(C(=O)O)c2)C1=O)=C\c1ccccc1	class 0
Cc1cc2nc3c(=O)n(C)c(=O)n(C)c3nc2cc1N=CN(C)C	class 1
CCn1c(O)c(/C=N/NC(=O)c2ccncc2)c(=O)n(CC)c1=S	class 1
COc1ccccc1/C=C(/C(=O)OCC(=O)Nc1ccc(N(C)C)cc1)c1ccccc1	class 0

Turning to the following molecule.
Exam item: # fetch the recorded call for CCOc1ccccc1NC(=O)c1ccccc1-c1ccccc1 here
Marked response: class 0

---

# key: entry, value: max response
- assay details: qHTS assay for small molecule antagonists of retinoid X receptor alpha signaling (AID 588546);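 note: cells stimulated with 9-cis-retinoic acid as agonist; % is set by controls: 0 for no effect and ±100 for the full control effect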
- condition description: HEK293T RXRa-UAS-bla, beta-lactamase ratio, antagonist mode; measured here: W530 green channel, cytotoxicity proxy
- Excerpt: NIH Chemical Genomics Center [NCGC] U.S. Environmental Protection Agency [EPA] National Institutes of Environmental Health Sciences [NIEHS] National Toxicology Program [NTP] NCGC Assay Overview The Retinoid X receptor (RXR), a nuclear hormone receptor is expressed in liver, spleen, placenta, epidermis, central nervous system. […]
Results filed as inconclusive are left out.
Numbers only; they are read as %.

C=C(C)C1CC=C(C)C(O)C1 (stereo not drawn)	-6.28
O=C(/C=C/c1ccc(O)c(O)c1)O[C@@H](C(=O)O)[C@@H](OC(=O)/C=C/c1ccc(O)c(O)c1)C(=O)O	-0.233
O=C1CCc2ccccc2O1	-3.35

Exam item: # return recorded max response for entry NC1=NC(S)C2N=CN=C2N1 (stereo not drawn)
Marked response: 4.34

Exam item: # return recorded max response for entry O[C@@H]([C@H](O)[C@@H](O)CBr)[C@@H](O)CBr
Marked response: -10.6

Exam item: # return recorded max response for entry O=C(O)c1ccc(O)cc1O
Marked response: -5.6

Exam item: # return recorded max response for entry CC1(C)S[C@@H]2[C@H](NC(=O)COc3ccccc3)C(=O)N2[C@H]1C(=O)O
Marked response: -19.5

Exam item: # return recorded max response for entry COc1c2ccoc2cc2oc(=O)ccc12
Marked response: -1.57

---

- assay details: qHTS assay for small molecule disruptors of the mitochondrial membrane potential - 5 hr assay (AID 651755); note: % is set by controls: 0 for no effect and ±100 for the full control effect; nearly all actives have a fitted effect of over 40% in size
- condition description: JC-1-type ratio dye; series mostly up to 92.2 µM
- Description: National Center for Advancing Translational Sciences [NCATS] NIH Chemical Genomics Center [NCGC] National Institutes of Environmental Health Sciences [NIEHS] National Toxicology Program [NTP] Mitochondrial membrane potential (MMP), one of the parameters for mitochondrial function, is generated by mitochondrial electron transport chain that creates an electrochemical gradient by a series of redox reactions. […] The dye accumulates in the mitochondria of healthy cells as aggregates, with red fluorescence. […]
Inconclusive results are not listed. The source made the active and inactive calls. The call rests on the fitted dose curve.
observation type: outcome

O[C@@H]([C@H](O)[C@@H](O)CBr)[C@@H](O)CBr	inactive
OCCNCCO	inactive
O=[N+]([O-])c1cccc(Cl)c1Cl	inactive

---

- experimental target: Rap guanine nucleotide exchange factor 4 (Homo sapiens) (UniProt Q8WZA2)
- Sequence (Q8WZA2 whole entry, looked up): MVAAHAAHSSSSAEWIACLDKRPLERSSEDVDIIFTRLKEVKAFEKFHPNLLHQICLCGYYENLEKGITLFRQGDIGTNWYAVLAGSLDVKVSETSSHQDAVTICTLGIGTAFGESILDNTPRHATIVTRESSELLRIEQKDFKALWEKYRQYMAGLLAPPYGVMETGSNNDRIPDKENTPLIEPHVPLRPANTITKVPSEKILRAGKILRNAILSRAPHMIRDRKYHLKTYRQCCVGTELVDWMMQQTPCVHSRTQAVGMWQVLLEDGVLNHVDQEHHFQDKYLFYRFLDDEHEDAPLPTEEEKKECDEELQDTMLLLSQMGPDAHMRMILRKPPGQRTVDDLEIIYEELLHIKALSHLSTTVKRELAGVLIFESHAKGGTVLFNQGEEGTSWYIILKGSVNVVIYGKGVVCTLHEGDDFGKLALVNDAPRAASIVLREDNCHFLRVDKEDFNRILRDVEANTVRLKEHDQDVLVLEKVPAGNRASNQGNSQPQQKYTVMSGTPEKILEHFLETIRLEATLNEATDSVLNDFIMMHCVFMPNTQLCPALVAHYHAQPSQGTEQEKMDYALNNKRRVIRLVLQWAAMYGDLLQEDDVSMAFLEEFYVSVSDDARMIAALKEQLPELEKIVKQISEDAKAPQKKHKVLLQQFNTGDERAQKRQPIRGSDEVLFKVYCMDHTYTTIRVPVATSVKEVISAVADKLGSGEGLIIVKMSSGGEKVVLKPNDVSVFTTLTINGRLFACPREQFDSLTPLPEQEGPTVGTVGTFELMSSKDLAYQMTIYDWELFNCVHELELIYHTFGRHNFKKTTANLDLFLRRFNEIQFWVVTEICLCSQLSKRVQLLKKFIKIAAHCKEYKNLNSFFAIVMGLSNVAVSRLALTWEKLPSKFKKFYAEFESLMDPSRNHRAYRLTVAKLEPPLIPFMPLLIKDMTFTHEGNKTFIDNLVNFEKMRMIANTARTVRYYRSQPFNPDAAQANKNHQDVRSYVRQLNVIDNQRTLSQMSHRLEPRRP
- assay details: Confirmatory qHTS for antagonist of cAMP-regulated guanine nucleotide exchange factor 4 (EPAC2) (AID 1645885); note: nearly all actives have a fitted effect of over 25% in size
- condition description: EPAC2 Rap1B-BODIPY-GDP exchange fluorescence, biochemical; series mostly up to 12.7 µM
Results filed as inconclusive are left out. The source made the active and inactive calls. The call rests on the fitted dose curve; in most records, active means well fitted inhibition curve with a large enough effect; inconclusive means small, poorly fitted or top-dose-only effect; inactive means no such curve, though single readings can be large or run the other way.
API: response.call in active, inactive

Record excerpt, results attached:
Cn1c(SCC(=O)c2cc(Cl)c(Cl)s2)nnc1-c1ccco1	inactive
CCCc1nc2c(Cl)cc(C(F)(F)F)cn2c1Cc1ccc(OC)cc1C	inactive
O=C(COC(=O)c1ccc2c(c1)C(=O)N(Cc1ccncc1)C2=O)Nc1ccccc1[N+](=O)[O-]	inactive
CCOC(=O)N1CCN(C(=O)C(C)(C)Oc2ccc(Cl)cc2)CC1	active
CCc1nnc(NS(=O)(=O)c2ccc(N/C=C\C(=O)c3ccc4ccccc4c3)cc2)s1	inactive
CCc1nc2c(OCc3ccc(C(F)(F)F)cc3)cccn2c1N(C)C(=O)C(C)C	inactive
CCOc1ccc(-n2cnc3scc(-c4ccc(OC)c(OC)c4)c3c2=O)cc1	inactive
O=C(Nc1cccc([N+](=O)[O-])c1)c1ccc2c(c1)C(=O)N(c1ccccn1)C2=O	inactive

Exam item: # fetch the recorded call for Cc1oc2c(O)c(O)ccc2c(=O)c1-c1cnn(-c2ccccc2)c1 here
Marked response: inactive

Exam item: # fetch the recorded call for COCCn1c(SCC(=O)c2c(C)[nH]c3ccccc23)nc2cc(C(=O)NC(C)C)ccc2c1=O here
Marked response: inactive

Exam item: # fetch the recorded call for CC(=O)Nc1c(C)nn(-c2ccccc2)c1N1CCC(C(=O)NCc2cccc(F)c2)CC1 here
Marked response: inactive

Exam item: # fetch the recorded call for Cc1ccc(S(=O)c2ccc([N+](=O)[O-])c3nonc23)cc1 (stereo not given) here
Marked response: inactive

Exam item: # fetch the recorded call for O=C(CCn1c(=O)oc2ccccc21)N(Cc1ccccc1)c1ccccc1 here
Marked response: inactive

Exam item: # fetch the recorded call for Cc1cccc([C@H]2[C@@H]3C=CCC[C@@H]3C(=O)N2Cc2ccccc2)c1 here
Marked response: active

Exam item: # fetch the recorded call for COc1ccc(N2C(=O)Cc3cc(OC)c(OC)cc3C2c2ccc(F)cc2)cc1 (stereo not given) here
Marked response: inactive

Exam item: # fetch the recorded call for S=C(Nc1ccc2nsnc2c1)NC1CCCCC1 here
Marked response: inactive

---

# key: entry, value: activity change, negative = inhibition
- assay details: NFAT Signaling Pathway (AID 444);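 note: carbachol stimulus at about its EC50 of 1 µM final; % is set by controls: 0 for no effect and ±100 for the full control effect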
- condition description: Jurkat NFAT-bla M1, carbachol, beta-lactamase ratio, 5 h; at 7.69 µM (top of the series) unless noted
Records with an inconclusive call do not appear.
Numbers only; they are read as %.

Some compounds with known activity change, negative = inhibition results, for comparison:
O=c1c(CCc2ccccc2)nc2cnc(N3CCOCC3)nc2n1-c1ccccc1	1.96
Cc1cnc(CNc2ncnc3ccc(-c4ccccc4Cl)cc23)cn1	7.91
c1ccc2c(NCCN3CCOCC3)nc(-c3ccoc3)nc2c1	-7.47

Attention now turns to another entry.
Exam item: # return recorded activity change, negative = inhibition for entry COc1ccc2[nH]cc(CCNc3ncncc3-c3ccoc3)c2c1
Marked response: -12

---

- experimental target: Thyrotropin receptor (Homo sapiens) (UniProt P16473)
- Sequence (P16473 whole entry, looked up): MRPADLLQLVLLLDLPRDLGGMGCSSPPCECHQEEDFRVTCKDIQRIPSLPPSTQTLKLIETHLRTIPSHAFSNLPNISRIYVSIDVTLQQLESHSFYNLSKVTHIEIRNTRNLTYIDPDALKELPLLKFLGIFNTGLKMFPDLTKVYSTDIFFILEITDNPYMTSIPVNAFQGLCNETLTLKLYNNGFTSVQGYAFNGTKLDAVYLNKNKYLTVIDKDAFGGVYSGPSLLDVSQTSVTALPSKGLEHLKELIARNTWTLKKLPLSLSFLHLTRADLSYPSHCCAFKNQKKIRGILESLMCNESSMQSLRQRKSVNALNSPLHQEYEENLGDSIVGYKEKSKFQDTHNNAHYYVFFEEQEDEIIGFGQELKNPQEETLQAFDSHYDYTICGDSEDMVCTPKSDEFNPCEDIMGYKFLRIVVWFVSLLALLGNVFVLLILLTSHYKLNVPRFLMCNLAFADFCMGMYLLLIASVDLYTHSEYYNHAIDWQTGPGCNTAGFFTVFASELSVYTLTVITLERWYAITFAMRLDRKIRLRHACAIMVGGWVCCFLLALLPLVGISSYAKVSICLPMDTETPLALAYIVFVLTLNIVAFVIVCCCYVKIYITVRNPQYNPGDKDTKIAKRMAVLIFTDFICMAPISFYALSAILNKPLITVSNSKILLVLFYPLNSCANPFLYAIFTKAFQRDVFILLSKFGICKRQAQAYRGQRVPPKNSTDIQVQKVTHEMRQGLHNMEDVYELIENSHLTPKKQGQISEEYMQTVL
- assay details: qHTS Assay for Antagonists of the Thyroid Stimulating Hormone Receptor (AID 488980);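 note: TSHR-transfected HEK293 cells stimulated with TSH at EC80 of 4 nM; 0% is about no effect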
- condition description: TSHR-expressing cells, cAMP antagonist read-out; series mostly up to 57.5 µM
Activity calls are given as the source filed them. Calls come from the whole dose curve; as a rule, active = well fitted curve in the direction sought with a large enough effect; inconclusive = small, poorly fitted or top-dose-only effect, or another doubt; inactive = no such curve, though single readings can be large or run the other way.
observation type: outcome

O=S(=O)(O)C1CCNCC1	inactive
COc1cc2c(cc1O)CCC1C2CC[C@]2(C)[C@@H](O)CC[C@@H]12 (stereo partly drawn)	inactive
CCCCN1CCC(COC(=O)c2cc(Cl)c(N)c3c2OCCO3)CC1	inactive

---

- assay details: Cell Viability - LYMP1-002 - Assay at 16 hr (AID 948)
- condition description: LYMP1-002 lymphoblastoid cell viability; series mostly up to 92.2 µM
Records with an inconclusive call do not appear. Activity calls are given as the source filed them. Calls come from the whole dose curve; as a rule, active = well fitted cell-killing curve with a large enough effect; inconclusive = small, poorly fitted or top-dose-only effect; inactive = flat fitted curve, though single readings scatter.
API: response.call in Y (active), N (inactive)

Cc1ccc([N+](=O)[O-])cc1N	N
C=Cc1ccccc1Cl	N
CCO	N
CC(=O)OC/C=C(\C)CCC=C(C)C	N
C=CC(=C)CCC=C(C)C	N
O=C(O)CC(C(=O)O)C(CC(=O)O)C(=O)O (stereo not drawn)	N
C=CC(=O)OCCOCCOCCOCCOC(=O)C=C	Y
CC1=CC(C)(C)Nc2ccccc21	N

Exam item: # fetch the recorded call for C=CCOC(=O)c1ccccc1C(=O)OCC=C here
Marked response: N

Exam item: # fetch the recorded call for COc1ccc(/C=C/c2cc(OC)cc(=O)o2)cc1 here
Marked response: N

Exam item: # fetch the recorded call for O=C(O)c1ccccc1C(c1ccc(O)cc1)c1ccc(O)cc1 here
Marked response: N

Exam item: # fetch the recorded call for C[C@H](CCC(=O)O)[C@H]1CC[C@H]2[C@@H]3CC[C@@H]4C[C@H](O)CC[C@]4(C)[C@H]3CC[C@]12C here
Marked response: N

Exam item: # fetch the recorded call for CCCN(CCC)C(=O)SCC here
Marked response: N
